Data provenance: patent US10202368B2

testedOn: CXCR7 (Homo sapiens (Human), UniProt P25106)
Sequence (P25106 whole entry): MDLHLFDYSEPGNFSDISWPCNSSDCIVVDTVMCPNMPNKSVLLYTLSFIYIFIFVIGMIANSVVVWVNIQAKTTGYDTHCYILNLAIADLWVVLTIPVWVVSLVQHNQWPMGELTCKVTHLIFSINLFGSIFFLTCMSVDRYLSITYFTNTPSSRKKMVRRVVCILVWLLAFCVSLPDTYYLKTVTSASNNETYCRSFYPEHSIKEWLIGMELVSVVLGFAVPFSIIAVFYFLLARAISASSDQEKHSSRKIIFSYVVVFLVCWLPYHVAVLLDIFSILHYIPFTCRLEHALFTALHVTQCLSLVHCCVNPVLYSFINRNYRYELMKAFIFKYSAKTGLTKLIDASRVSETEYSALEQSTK
Sequence (P32121 whole entry partner): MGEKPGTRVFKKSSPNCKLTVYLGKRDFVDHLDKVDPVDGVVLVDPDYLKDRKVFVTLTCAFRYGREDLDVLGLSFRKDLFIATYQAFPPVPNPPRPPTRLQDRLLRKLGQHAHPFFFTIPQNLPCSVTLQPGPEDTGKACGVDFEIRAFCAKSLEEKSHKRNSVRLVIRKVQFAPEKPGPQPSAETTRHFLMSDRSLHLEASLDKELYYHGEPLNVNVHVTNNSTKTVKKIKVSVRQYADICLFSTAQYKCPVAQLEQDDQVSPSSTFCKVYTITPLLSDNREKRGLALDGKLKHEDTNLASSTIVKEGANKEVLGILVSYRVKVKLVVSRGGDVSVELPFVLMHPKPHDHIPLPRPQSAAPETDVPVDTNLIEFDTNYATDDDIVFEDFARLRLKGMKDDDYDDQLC
assaySummary: PathHunter CHO-K1 CXCR7 β-arrestin assay (agonistic activity)
conditions: β-arrestin recruitment in PathHunter CHO-K1 CXCR7 β-arrestin cells, 90 minutes at 37° C., geometric mean values
We label by threshold. Values of EC50 strictly beneath 40 nM are Met. Values of 40 nM and up are Not met.

Would you please look over these solved cases?
[[record]]
molecule = "CC(C)NCCN(Cc1ccccc1C(F)(F)F)C(=O)CNc1cccc2c1N(C)CCN(CC1CC1)C2 [Example 52]"
discretelabel = "Met"

[[record]]
molecule = "CCN1CCOc2c(cccc2NCC(=O)N(CCN(C)C)Cc2c(C(F)(F)F)nn(C)c2Cl)C1 [Example 77]"
discretelabel = "Not met"

[[record]]
molecule = "CC(=O)N1CCc2cccc(OCC(=O)N(CCN(C)C)Cc3ccccc3C(F)(F)F)c2CC1 [Example 25]"
discretelabel = "Met"

[[record]]
molecule = "CCN1CCOc2c(NCC(=O)N(CCN3CCCC3)Cc3ncccc3C(F)(F)F)cccc2C1=O [Example 57]"
discretelabel = "Not met"

[[record]]
molecule = "CN(C)CCN(Cc1ccccc1Cl)C(=O)CNc1cccc2c1C(=O)N(CC1CC1)CCO2 [Example 32]"
discretelabel = "Met"


For CC(C)N(CCN(Cc1ccccc1C(F)(F)F)C(=O)CNc1cccc2c1N(C)CCN(CC1CC1)C2)C(=O)OC(C)(C)C [Example 50] , is the recorded EC50 below the cut-off of 40 nM?
Not met

For CC(C)CN1CCOc2c(cccc2NCC(=O)N(CCN(C)C)Cc2ncccc2Cl)C1 [Example 3] , is the recorded EC50 below the cut-off of 40 nM?
Met

For CN(C)CCN(Cc1ccccc1C(F)(F)F)C(=O)CNc1cccc2c1OCC(=O)N(CC1CC1)C2 [Example 67] , is the recorded EC50 below the cut-off of 40 nM?
Met

* * *

testedOn: CXCR7 (Homo sapiens (Human), UniProt P25106)
assaySummary: PathHunter CHO-K1 CXCR7 β-arrestin assay (agonistic activity)
conditions: β-arrestin recruitment in PathHunter CHO-K1 CXCR7 β-arrestin cells, 90 minutes at 37° C., geometric mean values
Some compounds, each annotated with its measured pEC50.
Formally, pEC50 is defined as -log10 of the concentration c, with c in mol/L.

[[record]]
moleculesmiles = "CC(C)CN1CCOc2c(cccc2NCC(=O)N(CCN2CCCC2=O)Cc2ccccc2C(F)(F)F)C1"
testedon = "CXCR7 (Homo sapiens (Human), UniProt P25106)"
observedproperty = "pEC50"
measurednumber = 6.72

[[record]]
moleculesmiles = "CN(CCN(Cc1ccccc1C(F)(F)F)C(=O)CNc1cccc2c1C(=O)N(CC1CC1)CCO2)C(=O)OC(C)(C)C"
testedon = "CXCR7 (Homo sapiens (Human), UniProt P25106)"
observedproperty = "pEC50"
measurednumber = 6.39

[[record]]
moleculesmiles = "CCN1CCOc2c(NCC(=O)N(CCN3CCCC3)Cc3ncccc3Cl)cccc2C1=O"
testedon = "CXCR7 (Homo sapiens (Human), UniProt P25106)"
observedproperty = "pEC50"
measurednumber = 6.59

[[record]]
moleculesmiles = "CC(C)N(CCN(Cc1ccccc1C(F)(F)F)C(=O)CNc1cccc2c1C(=O)N(CC1CC1)CCO2)C(=O)OC(C)(C)C"
testedon = "CXCR7 (Homo sapiens (Human), UniProt P25106)"
observedproperty = "pEC50"
measurednumber = 6.38

[[record]]
moleculesmiles = "CN(C)CCN(Cc1ncccc1Cl)C(=O)CNc1cccc2c1N(C)CCN(CC1CC1)C2=O"
testedon = "CXCR7 (Homo sapiens (Human), UniProt P25106)"
observedproperty = "pEC50"
measurednumber = 7.30


For CN1CCN(CC2CC2)C(=O)c2cccc(NCC(=O)N(CCNC(C)(C)C)Cc3ccccc3C(F)(F)F)c21 the compound record lists pEC50 as 8.40

For CCN1CCOc2c(NCC(=O)N(CCN(C)C)Cc3ncccc3Cl)cccc2C1=O the compound record lists pEC50 as 6.59
